Tested on: KIT (human), P10721 [L576P]
Sequence (P10721 whole entry L576P, looked up): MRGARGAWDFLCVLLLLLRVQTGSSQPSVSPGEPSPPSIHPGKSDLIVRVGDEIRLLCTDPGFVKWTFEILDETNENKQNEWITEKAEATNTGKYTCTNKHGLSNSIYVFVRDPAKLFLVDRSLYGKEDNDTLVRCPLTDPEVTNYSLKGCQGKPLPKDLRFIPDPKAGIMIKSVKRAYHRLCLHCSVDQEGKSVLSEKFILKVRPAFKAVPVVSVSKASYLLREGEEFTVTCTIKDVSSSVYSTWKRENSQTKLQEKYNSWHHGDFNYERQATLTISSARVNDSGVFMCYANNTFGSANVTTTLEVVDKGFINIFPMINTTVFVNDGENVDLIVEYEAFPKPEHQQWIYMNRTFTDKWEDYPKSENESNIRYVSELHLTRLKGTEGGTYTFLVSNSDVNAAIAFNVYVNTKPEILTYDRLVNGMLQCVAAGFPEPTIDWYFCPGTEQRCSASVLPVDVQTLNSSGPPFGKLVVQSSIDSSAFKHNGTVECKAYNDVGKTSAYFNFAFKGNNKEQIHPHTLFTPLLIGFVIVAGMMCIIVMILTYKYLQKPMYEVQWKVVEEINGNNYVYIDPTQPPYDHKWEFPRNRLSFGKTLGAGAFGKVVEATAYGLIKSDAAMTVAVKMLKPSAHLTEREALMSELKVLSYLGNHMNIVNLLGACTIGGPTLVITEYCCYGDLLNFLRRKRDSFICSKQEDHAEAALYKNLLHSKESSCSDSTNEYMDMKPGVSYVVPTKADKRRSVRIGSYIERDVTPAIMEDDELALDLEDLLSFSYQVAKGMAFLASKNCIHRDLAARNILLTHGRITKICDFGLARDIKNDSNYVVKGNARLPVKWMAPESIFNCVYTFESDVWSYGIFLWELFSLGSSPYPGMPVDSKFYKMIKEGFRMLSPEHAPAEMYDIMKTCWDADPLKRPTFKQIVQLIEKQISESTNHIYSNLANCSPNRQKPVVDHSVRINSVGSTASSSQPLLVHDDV
assay_notes: KINOMEscan competition binding
test_conditions: compound 1.0 µM
The compounds listed here are annotated with their kinase still bound, per cent of control.
A complete answer gives the number and then names the unit.

Reference set, count: 3
structure_smiles=CN(C)C/C=C/C(=O)Nc1cccc(C(=O)Nc2ccc(Nc3nccc(-c4c(-c5ccccc5)nn5ccccc45)n3)cc2)c1 result=3%
structure_smiles=CN(C)C/C=C/C(=O)Nc1cccc(C(=O)Nc2ccc(Nc3nccc(/C(C#N)=C4\Nc5ccccc5S4)n3)cc2)c1 result=100%
structure_smiles=CN(C)C/C=C/C(=O)Nc1cccc(C(=O)Nc2ccc(Nc3nccc(-c4cccnc4)n3)cc2)c1 result=2.2%

// switching to the query compound
Lookup: Which measured kinase still bound, per cent of control belongs to `Cc1cc(NC(=O)c2cccc(NC(=O)/C=C/CN(C)C)c2)ccc1Nc1nccc(-c2cccnc2)n1` , tested on KIT (human), P10721 [L576P]?
Found: 100%

====

study_target: DYRK1A (human) (UniProt Q13627)
assay_notes: KINOMEscan competition binding
test_conditions: compound 1.0 µM
The compounds listed here are annotated with their kinase still bound, per cent of control.
Give the value, in units of %, as a plain number.

structure_smiles=Cc1cc(NC(=O)c2cccc(NC(=O)/C=C/CN(C)C)c2)ccc1Nc1nccc(-c2cccnc2)n1 reading_unit=% quantitative_readout=81
structure_smiles=CN(C)C/C=C/C(=O)Nc1cccc(C(=O)Nc2ccc(Nc3nccc(/C(C#N)=C4\Nc5ccccc5S4)n3)cc2)c1 reading_unit=% quantitative_readout=87
structure_smiles=CN(C)C/C=C/C(=O)Nc1cccc(C(=O)Nc2ccc(Nc3nccc(-c4c(-c5ccccc5)nn5ccccc45)n3)cc2)c1 reading_unit=% quantitative_readout=90

// switching to the query compound
Lookup: Which measured kinase still bound, per cent of control belongs to `CN(C)C/C=C/C(=O)Nc1cccc(C(=O)Nc2ccc(Nc3nccc(-c4cccnc4)n3)cc2)c1` , tested on DYRK1A (human) (UniProt Q13627)?
Found: 37

====

The compounds listed here are annotated with their kinase still bound, per cent of control.
study_target: FRK (human) (UniProt P42685)
Sequence (P42685 whole entry, looked up): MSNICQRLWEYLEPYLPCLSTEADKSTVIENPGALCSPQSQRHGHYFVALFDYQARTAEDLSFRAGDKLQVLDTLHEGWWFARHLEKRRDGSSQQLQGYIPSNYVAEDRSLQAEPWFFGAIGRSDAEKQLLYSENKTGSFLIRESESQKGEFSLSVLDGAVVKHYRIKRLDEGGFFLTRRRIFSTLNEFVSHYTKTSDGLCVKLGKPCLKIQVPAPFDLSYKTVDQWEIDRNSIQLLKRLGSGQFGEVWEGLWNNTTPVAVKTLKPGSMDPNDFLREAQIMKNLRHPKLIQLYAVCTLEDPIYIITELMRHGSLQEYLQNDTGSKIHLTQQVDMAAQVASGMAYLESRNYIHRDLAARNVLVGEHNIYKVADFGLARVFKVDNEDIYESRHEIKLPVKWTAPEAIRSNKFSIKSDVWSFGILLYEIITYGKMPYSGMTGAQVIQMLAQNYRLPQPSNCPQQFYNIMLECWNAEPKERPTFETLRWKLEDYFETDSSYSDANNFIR
assay_notes: KINOMEscan competition binding
test_conditions: compound 1.0 µM
Give the value, in units of %, as a plain number.

Reference set, count: 3
structure_smiles=CN(C)C/C=C/C(=O)Nc1cccc(C(=O)Nc2ccc(Nc3nccc(-c4cccnc4)n3)cc2)c1 quantitative_readout=90
structure_smiles=CN(C)C/C=C/C(=O)Nc1cccc(C(=O)Nc2ccc(Nc3nccc(-c4c(-c5ccccc5)nn5ccccc45)n3)cc2)c1 quantitative_readout=32
structure_smiles=CN(C)C/C=C/C(=O)Nc1cccc(C(=O)Nc2ccc(Nc3nccc(/C(C#N)=C4\Nc5ccccc5S4)n3)cc2)c1 quantitative_readout=100

// switching to the query compound
Lookup: Which measured kinase still bound, per cent of control belongs to `Cc1cc(NC(=O)c2cccc(NC(=O)/C=C/CN(C)C)c2)ccc1Nc1nccc(-c2cccnc2)n1` , tested on FRK (human) (UniProt P42685)?
Found: 100

====

The compounds listed here are annotated with their kinase still bound, per cent of control.
study_target: ROS1 (human) (UniProt P08922)
Sequence (P08922 whole entry, looked up): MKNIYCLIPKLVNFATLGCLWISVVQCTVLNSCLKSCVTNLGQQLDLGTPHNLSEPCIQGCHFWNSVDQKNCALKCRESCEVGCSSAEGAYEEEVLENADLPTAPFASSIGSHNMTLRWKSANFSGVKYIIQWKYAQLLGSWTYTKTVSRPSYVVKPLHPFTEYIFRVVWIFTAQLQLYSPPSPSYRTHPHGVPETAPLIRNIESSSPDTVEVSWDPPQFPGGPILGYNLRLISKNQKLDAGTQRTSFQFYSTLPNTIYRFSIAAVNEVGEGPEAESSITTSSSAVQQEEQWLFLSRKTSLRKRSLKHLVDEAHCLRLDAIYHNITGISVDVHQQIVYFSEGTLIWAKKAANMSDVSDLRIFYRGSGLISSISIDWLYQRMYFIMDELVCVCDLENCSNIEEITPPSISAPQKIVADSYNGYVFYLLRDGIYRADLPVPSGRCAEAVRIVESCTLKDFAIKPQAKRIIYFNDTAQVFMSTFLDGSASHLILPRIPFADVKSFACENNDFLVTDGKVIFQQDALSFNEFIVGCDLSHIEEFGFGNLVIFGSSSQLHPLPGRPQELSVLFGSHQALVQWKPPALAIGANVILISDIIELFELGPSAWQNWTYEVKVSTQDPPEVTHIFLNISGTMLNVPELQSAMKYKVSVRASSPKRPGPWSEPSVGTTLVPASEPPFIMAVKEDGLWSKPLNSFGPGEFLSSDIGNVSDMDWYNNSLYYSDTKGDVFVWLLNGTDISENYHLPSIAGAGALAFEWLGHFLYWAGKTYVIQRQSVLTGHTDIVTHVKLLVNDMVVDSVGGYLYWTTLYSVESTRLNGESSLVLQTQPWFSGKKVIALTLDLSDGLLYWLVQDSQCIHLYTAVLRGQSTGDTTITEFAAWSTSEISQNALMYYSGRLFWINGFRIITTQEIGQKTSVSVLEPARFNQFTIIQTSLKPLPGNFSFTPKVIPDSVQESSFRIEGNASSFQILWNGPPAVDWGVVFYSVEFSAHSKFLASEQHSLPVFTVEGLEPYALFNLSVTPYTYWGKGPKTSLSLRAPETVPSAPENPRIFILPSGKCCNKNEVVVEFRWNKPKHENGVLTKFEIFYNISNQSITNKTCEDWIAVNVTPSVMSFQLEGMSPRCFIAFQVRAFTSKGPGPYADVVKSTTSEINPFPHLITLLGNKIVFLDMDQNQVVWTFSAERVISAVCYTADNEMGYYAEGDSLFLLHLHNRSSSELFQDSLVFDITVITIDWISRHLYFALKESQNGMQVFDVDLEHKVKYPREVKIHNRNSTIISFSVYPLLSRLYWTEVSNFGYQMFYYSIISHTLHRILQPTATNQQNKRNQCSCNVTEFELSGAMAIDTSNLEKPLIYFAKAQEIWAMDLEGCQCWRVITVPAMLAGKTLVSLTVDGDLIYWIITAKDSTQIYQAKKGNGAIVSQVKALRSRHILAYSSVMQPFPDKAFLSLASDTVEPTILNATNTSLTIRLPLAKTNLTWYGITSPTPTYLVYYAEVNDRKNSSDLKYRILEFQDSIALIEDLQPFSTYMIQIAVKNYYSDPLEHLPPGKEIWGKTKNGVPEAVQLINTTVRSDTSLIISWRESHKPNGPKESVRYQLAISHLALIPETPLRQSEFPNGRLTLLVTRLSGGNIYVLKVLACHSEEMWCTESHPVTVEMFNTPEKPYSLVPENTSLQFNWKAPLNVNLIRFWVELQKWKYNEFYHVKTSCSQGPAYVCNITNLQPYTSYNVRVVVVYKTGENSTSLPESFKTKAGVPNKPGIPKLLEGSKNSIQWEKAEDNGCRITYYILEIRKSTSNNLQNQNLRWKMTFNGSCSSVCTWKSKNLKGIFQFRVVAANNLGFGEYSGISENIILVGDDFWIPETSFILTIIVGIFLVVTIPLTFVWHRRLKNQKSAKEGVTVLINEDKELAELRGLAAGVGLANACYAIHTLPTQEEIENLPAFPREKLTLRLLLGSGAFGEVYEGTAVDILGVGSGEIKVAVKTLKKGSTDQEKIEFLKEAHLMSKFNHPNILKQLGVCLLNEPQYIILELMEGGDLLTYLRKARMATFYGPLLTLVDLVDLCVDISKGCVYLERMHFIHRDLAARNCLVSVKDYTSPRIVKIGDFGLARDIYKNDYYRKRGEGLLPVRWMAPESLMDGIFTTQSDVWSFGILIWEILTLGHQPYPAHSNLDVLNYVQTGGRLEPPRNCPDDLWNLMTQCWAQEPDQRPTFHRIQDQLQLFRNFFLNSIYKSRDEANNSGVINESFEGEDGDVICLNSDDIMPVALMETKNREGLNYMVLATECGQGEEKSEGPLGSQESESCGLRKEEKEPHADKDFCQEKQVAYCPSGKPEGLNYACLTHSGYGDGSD
assay_notes: KINOMEscan competition binding
test_conditions: compound 1.0 µM
Give the value, in units of %, as a plain number.

Reference set, count: 3
structure_smiles=CN(C)C/C=C/C(=O)Nc1cccc(C(=O)Nc2ccc(Nc3nccc(-c4cccnc4)n3)cc2)c1 value_type="kinase still bound, per cent of control" quantitative_readout=100
structure_smiles=CN(C)C/C=C/C(=O)Nc1cccc(C(=O)Nc2ccc(Nc3nccc(/C(C#N)=C4\Nc5ccccc5S4)n3)cc2)c1 value_type="kinase still bound, per cent of control" quantitative_readout=58
structure_smiles=CN(C)C/C=C/C(=O)Nc1cccc(C(=O)Nc2ccc(Nc3nccc(-c4c(-c5ccccc5)nn5ccccc45)n3)cc2)c1 value_type="kinase still bound, per cent of control" quantitative_readout=100

// switching to the query compound
Lookup: Data request, read-out kinase still bound, per cent of control, for `Cc1cc(NC(=O)c2cccc(NC(=O)/C=C/CN(C)C)c2)ccc1Nc1nccc(-c2cccnc2)n1`
Found: 90
